# System: IGROV-1
# measurement.protocol: NCI tumour cell line growth inhibition, 48 h
Activity calls are given as the source filed them. Rule as the data show it: active = GI50 up to about 1.1 µM and inactive = higher. Where a SMILES comes first, the peptide text is derived from it. The star is where a group is joined. Fmoc = O=C(OCC1c2ccccc2-c2ccccc21)*; Boc = CC(C)(C)OC(=O)*
Outcomes: active, inactive

compound	system.name	group
O=C(Nc1ccc(Sc2ccc(/N=N/c3c(O)c(S(=O)(=O)O)cc4cc(S(=O)(=O)O)ccc34)cc2)cc1)c1ccc(/N=N/c2c(O)ccc3c(S(=O)(=O)O)cc(S(=O)(=O)O)cc23)cc1	IGROV-1	inactive
c1ccc(NNC2=NCCN2)cc1	IGROV-1	inactive
COc1cc(/C=C/C(=N\NC(=O)c2ccccc2)c2sc(Nc3ccc(Cl)c(Cl)c3)nc2C)ccc1O	IGROV-1	inactive
C=C(C)[C@@H]1CCC2=C[C@@H](OC2=O)[C@@H](C(=C)C)C2=CC(C(=O)O)=C(C1)O2	IGROV-1	inactive
COC(=O)C1Cc2c([nH]c3ccccc23)-c2[nH]c3ccccc3c2CC(NC(C)=O)C(=O)NCC(=O)N1 (stereo not given)	IGROV-1	active
O=C(N/C(=C\c1ccc([N+](=O)[O-])cc1)c1nc2ccccc2s1)c1ccccc1	IGROV-1	inactive
CCCCCCCCCCCC(=O)OCC1OC(OC)C(NC(=O)N(CCCl)N=O)C(O)C1O (stereo not given)	IGROV-1	inactive
Clc1ccc(Cc2nc3cc(Cl)ccc3o2)cc1	IGROV-1	inactive
SC1=NC2(CCCCCC2)NN1c1ccccc1	IGROV-1	inactive
CSc1nncc(-c2cc3c(c(SC)n2)CCC3)n1	IGROV-1	inactive
CSc1cc(=O)n2c3ccccc3c3ccnc1c32	IGROV-1	inactive
CC(C)(C)OC(=O)NCCCCC(NC(=O)C(Cc1c[nH]c2ccccc12)NC(=O)OCC1c2ccccc2-c2ccccc21)C(=O)O (stereo not given) (Fmoc-Trp-Lys(Boc)-OH; configuration not given here)	IGROV-1	inactive
COc1ccc(/C=N/n2cnc3c(c2=O)SC(=C(C#N)C#N)N3c2ccccc2)cc1	IGROV-1	inactive
O=C(c1ccccc1)N1CCN(C(=S)NC2CCCCC2)C1=S	IGROV-1	inactive
CC1=C(SC#N)S(=O)(=O)N(c2ccccc2)C(C)=C1SC#N	IGROV-1	inactive
O=S(=O)(/N=C(\NO)Nc1ccc(Cl)cc1)c1cccc2nsnc12	IGROV-1	inactive
Brc1ccc2c(-c3csc(-c4c[nH]c5ccc(Br)cc45)n3)c[nH]c2c1	IGROV-1	inactive
COc1ccc2c(N=[N+]=[N-])c(-c3ccccc3)c(=O)oc2c1	IGROV-1	inactive
CN1CCC2(CC1)C(=O)N(NC(N)=O)C(=O)C2c1ccccc1 (stereo not given)	IGROV-1	inactive
O=[N+]([O-])c1cc(Cl)ccc1S(=O)(=O)c1ccc(Cl)cc1[N+](=O)[O-]	IGROV-1	inactive
Fc1ccc(C2NC(=S)NC3=C2CCOc2c3ccc3ccccc23)cc1 (stereo not given)	IGROV-1	inactive
CCOC(=O)c1c(CN2CCNCC2)nc2ccccc2c1-c1ccccc1	IGROV-1	inactive
CSc1nc2c(c(O)c(C)c(=O)n2C2OCC(OC(C)=O)C(OC(C)=O)C2OC(C)=O)c(=O)n1C (stereo not given)	IGROV-1	inactive
CC1(C)C2C=CC1(C)C1(CC2)OCCO1 (stereo not given)	IGROV-1	inactive
CCOC(=O)c1nc2ccc(C(F)(F)F)cc2nc1NCc1ccc(F)cc1	IGROV-1	inactive
